These measurements were taken from PubChem BioAssay (NCATS).

- TEST SUMMARY: SW1088 Cancer Cell Toxicity qHTS against the NCATS CANVASS Library (AID 1347350); also: nearly all actives have a fitted effect of over 75% in size
- EXPERIMENTAL CONTEXT: SW1088 viability, CellTiter-Glo luminescence, 72 h; series mostly up to 38.3 µM
Results filed as inconclusive are left out. Calls of active or inactive are those of the source. Calls follow the shape of the dose curve; as a rule, active = well fitted cell-killing curve with a large enough effect; inconclusive = small, poorly fitted or top-dose-only effect; inactive = flat fitted curve, though single readings scatter.
Classes to choose from: active, inactive

Known results for molecules:
MOLECULE	CATEGORY
CC=C1CN(C=O)[C@H]2C[C@@H]1[C@@H](C(=O)OC)[C@@]13CCOC21Nc1ccccc13 (stereo partly drawn)	inactive
CCC[C@H]1CC[C@H]2[C@H](C)CCC[C@H]2N1	inactive
CN1C(=O)[C@]23CC4C(C)(C)[C@@]5(C[C@@]41CN2CC[C@@]3(C)O)C(=O)Nc1c5ccc2c1OC=CC(C)(C)O2 (stereo partly drawn)	inactive
CO[C@@H](/C=C/CC/C=C/C(=O)O)[C@@H](O)[C@H](C)[C@@H](O)/C(C)=C/[C@H](C)C(=O)CCCC1CC(=O)NC(=O)C1	inactive
NCCc1ccccc1	inactive

Asked: Could you kindly confirm the outcome this assay logged for "CN(C)Cc1c[nH]c2ccccc12" ?
Given back: inactive

Asked: Could you kindly confirm the outcome this assay logged for CCN1C[C@]2(C)CC[C@H](O)[C@]34C1C(C[C@H]23)[C@@]12CC[C@H](CC14)[C@](O)(COC(=O)c1ccc(OC)c(OC)c1)[C@H]2O (stereo partly drawn) ?
Given back: inactive

Asked: Could you kindly confirm the outcome this assay logged for CCCC[C@@H]1CC[C@H]2CCCC(CCC)N12 (stereo partly drawn) ?
Given back: inactive

Asked: Could you kindly confirm the outcome this assay logged for CC[N@@+]1([O-])C[C@]2(C)CC[C@@H](O)[C@@]34C5C[C@H]6CC[C@@]5(C(C[C@H]23)C41)[C@H](O)[C@@]6(O)CO (stereo partly drawn) ?
Given back: inactive

Asked: Could you kindly confirm the outcome this assay logged for "COc1ccc2c(c1)[nH]c1c(C)nccc12" ?
Given back: inactive

Asked: Could you kindly confirm the outcome this assay logged for CC1=CC2CC[C@@H]3[C@@H](C)C[C@H](C)[C@@H](C1)N23 (stereo partly drawn) ?
Given back: inactive

Asked: Could you kindly confirm the outcome this assay logged for "COc1ccc2c3c([nH]c2c1)C(C)=NCC3" ?
Given back: inactive

Asked: Could you kindly confirm the outcome this assay logged for CCCCC[C@@H]1OC(=O)[C@@H](C)N(C)C(=O)[C@H](CCCCC)OC(=O)C(C)N(C)C(=O)[C@H](CCCCC)OC(=O)[C@@H](C)N(C)C(=O)[C@H](CCCCC)OC(=O)C(C)N(C)C1=O (stereo partly drawn) ?
Given back: active
